system.name: Neurogenic locus notch homolog protein 2 (Homo sapiens) (UniProt Q04721)
Sequence (Q04721 whole entry, looked up): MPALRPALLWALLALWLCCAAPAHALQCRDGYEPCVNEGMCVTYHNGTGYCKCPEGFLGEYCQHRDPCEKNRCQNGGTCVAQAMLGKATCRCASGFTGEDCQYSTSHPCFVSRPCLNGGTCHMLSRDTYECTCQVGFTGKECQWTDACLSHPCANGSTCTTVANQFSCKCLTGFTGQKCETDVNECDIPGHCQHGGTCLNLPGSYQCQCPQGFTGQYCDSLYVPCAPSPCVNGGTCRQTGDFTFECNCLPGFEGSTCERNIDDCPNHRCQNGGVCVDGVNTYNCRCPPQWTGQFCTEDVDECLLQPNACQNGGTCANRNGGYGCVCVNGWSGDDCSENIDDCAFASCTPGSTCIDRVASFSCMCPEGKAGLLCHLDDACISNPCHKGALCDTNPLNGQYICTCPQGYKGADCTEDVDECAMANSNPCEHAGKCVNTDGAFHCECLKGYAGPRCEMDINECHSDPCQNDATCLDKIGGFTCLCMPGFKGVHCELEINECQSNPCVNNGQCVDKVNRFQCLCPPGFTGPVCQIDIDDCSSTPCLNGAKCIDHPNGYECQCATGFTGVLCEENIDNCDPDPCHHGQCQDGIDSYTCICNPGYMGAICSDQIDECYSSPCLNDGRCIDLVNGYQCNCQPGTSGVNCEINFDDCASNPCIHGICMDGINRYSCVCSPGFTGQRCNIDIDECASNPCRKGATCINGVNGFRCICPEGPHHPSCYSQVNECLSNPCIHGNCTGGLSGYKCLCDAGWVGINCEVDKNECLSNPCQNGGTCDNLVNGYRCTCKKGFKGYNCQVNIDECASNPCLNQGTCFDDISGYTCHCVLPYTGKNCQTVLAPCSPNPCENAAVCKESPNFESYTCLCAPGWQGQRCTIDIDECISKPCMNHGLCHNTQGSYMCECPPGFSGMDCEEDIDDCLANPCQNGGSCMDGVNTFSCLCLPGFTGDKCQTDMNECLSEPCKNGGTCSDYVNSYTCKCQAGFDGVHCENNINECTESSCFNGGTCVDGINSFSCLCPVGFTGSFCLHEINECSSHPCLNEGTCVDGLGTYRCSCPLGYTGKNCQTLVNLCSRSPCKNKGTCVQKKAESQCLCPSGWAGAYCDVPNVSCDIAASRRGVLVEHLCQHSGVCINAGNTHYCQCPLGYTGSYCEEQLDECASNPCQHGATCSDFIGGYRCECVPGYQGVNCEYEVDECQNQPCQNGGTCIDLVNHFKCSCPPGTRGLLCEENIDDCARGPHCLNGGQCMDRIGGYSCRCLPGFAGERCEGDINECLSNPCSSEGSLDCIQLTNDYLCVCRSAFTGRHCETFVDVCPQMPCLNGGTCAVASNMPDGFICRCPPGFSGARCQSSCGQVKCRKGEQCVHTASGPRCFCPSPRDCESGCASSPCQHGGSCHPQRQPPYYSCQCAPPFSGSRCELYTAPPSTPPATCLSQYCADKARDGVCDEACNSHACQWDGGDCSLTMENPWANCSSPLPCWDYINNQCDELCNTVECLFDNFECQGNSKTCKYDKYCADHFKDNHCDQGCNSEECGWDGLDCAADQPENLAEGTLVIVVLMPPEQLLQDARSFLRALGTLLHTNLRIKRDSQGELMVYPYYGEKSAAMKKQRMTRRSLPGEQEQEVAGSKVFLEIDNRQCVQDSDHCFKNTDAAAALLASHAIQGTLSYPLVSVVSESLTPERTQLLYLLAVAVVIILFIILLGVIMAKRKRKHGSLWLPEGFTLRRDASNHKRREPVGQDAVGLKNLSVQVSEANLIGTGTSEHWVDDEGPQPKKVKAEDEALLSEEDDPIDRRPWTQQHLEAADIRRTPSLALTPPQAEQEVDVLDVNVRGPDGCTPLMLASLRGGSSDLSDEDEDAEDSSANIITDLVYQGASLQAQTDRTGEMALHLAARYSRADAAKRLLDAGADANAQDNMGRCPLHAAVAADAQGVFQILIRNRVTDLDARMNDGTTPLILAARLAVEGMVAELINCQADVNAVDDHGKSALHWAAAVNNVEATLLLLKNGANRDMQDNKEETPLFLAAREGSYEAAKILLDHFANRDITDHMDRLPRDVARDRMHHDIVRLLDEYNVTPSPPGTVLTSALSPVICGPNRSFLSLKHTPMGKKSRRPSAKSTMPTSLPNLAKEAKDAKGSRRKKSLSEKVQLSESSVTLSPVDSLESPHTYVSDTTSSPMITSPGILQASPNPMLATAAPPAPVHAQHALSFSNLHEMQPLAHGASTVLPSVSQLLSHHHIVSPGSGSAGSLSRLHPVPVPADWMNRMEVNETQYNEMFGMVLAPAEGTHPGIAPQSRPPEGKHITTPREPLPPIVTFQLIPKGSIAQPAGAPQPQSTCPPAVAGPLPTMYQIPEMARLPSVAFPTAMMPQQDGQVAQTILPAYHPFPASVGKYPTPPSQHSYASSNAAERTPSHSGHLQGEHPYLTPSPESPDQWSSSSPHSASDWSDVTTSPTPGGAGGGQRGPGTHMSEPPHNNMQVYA
assay: Notch2 binders on small-molecule microarrays, primary screen, biochemical, small-molecule microarray, 635 nm fluorescence, stem cell growth factors (AID 1073)
applied.conditions: Notch2 binding, higher = more signal
measured.quantity: composite z-score
Keep the answer to the number alone.

Recorded results for 5 molecules are shown here.
molecule: CCCCC(O)C1C=CC2C(=O)N(c3ccccc3)C(=O)C2N1Nc1ccc(C(C)C)cc1 (centres undefined)
system.name: Neurogenic locus notch homolog protein 2 (Homo sapiens) (UniProt Q04721)
composite z-score: 1.44

molecule: CN(C)CCCCNC(=O)[C@@H]1C[C@@H]2C(=O)N[C@@H](Cc3ccccc3)C(=O)N2[C@@H]1c1cccc(OCCO)c1
system.name: Neurogenic locus notch homolog protein 2 (Homo sapiens) (UniProt Q04721)
composite z-score: -0.729

molecule: COc1ccc(CCNC(=O)[C@@]2(Sc3ccc(C)cc3)CC(=O)N(C3Cc4ccccc4C3)[C@@H]2c2ccc(CO)cc2)cc1
system.name: Neurogenic locus notch homolog protein 2 (Homo sapiens) (UniProt Q04721)
composite z-score: 1.43

molecule: CC(C)(C)OC(=O)CC[C@]1(C(=O)NCc2ccccc2)N=C(c2ccc(OCCCO)cc2)O[C@H]1c1ccccc1CN=[N+]=[N-]
system.name: Neurogenic locus notch homolog protein 2 (Homo sapiens) (UniProt Q04721)
composite z-score: 1.55

molecule: CCOC(=O)C[C@H]1[C@H](OC(=O)Cc2ccc3c(c2)OCO3)[C@@H](NC(=O)CC(C)C)c2cc(OCCCO)ccc2N1C(=O)Cc1ccc(OC)cc1
system.name: Neurogenic locus notch homolog protein 2 (Homo sapiens) (UniProt Q04721)
composite z-score: -0.0727

Incoming: Fill blank: measured composite z-score of the molecule CN(C)C(=O)[C@]1(CCS(=O)(=O)c2ccccc2)N=C(c2ccc(OCCCO)cc2)O[C@@H]1c1ccccc1N=[N+]=[N-] is ____.
Outgoing: 1.59

Incoming: Please answer likewise for COC(=O)c1c2oc(c1C(=O)OC)C(=O)N(C)Cc1cn(nn1)C[C@H](Cc1ccccc1)NC(=O)N[C@H](CO)CC2
Outgoing: -0.867

Incoming: Please answer likewise for O=C1N(Cc2ccccc2)c2ccccc2[C@@H]2OC(c3ccc(OCCCO)cc3)=N[C@]12Cc1ccccc1
Outgoing: 0.848

Incoming: Please answer likewise for CCOC(=O)c1ccc(NC(=O)O[C@H]2[C@H](OC(=O)Nc3ccc4c(c3)OCO4)[C@@H](OC(=O)Nc3ccc4c(c3)OCO4)[C@@H](OC)O[C@@H]2CO)cc1
Outgoing: 1.39

Incoming: Please answer likewise for COc1ccc(C#Cc2ccc3c(c2)[C@]2(C(=O)N3)[C@H](c3ccc(O)cc3)N3[C@H](c4ccccc4)[C@H](c4ccccc4)OC(=O)[C@H]3[C@@H]2C(=O)O)cc1
Outgoing: 0.761

Incoming: Please answer likewise for CC=CC(O)C1C=CC2C(=O)N(c3ccccc3)C(=O)C2N1Nc1ccccc1F (centres undefined)
Outgoing: 0.264

Incoming: Please answer likewise for CN1C(=O)C2C=CC(C(O)c3ccccn3)N(N(c3ccccc3)c3ccccc3)C2C1=O (centres undefined)
Outgoing: 0.594

Incoming: Please answer likewise for COc1ccc([Si](C)(C)[C@@H]2[C@@H](CC(=O)N(CCO)Cc3ccccc3)O[C@]3(C(=O)N(Cc4cccc(N5CCOC5=O)c4)c4ccccc43)[C@H]2C)cc1
Outgoing: 0.0505

Incoming: Please answer likewise for COCCOC(=O)N1C(=O)[C@@]2(c3cc(C#CCNC(N)=O)ccc31)[C@H](C(=O)N1CCc3cc(OC)c(OC)cc3C1)[C@H]1C(=O)O[C@H](c3ccccc3)[C@H](c3ccccc3)N1[C@@H]2c1ccccc1OCCO
Outgoing: 0.749
